- TEST_METHOD_NOTES: Bi-directional permeability (Papp) across HEC-1A dual chamber (Transwell) barrier model
- Format: in vitro ADME
- CONDITION_CONTEXT: human, pH 7.4, basolateral to apical; over concentration range (tenofovir 0.1–100 µM; darunavir 0.1–20 µM, 0.01% DMSO); read-out: Secretory permeability Papp
- Protocol: The apical chambers of 12-well polycarbonate and polyester systems (Corning Costar Corp, Cambridge, UK) were seeded with different densities of HEC-1A cells in 500 µL of the medium while 1500 µL culture medium was added to the basolateral chamber. -Medium in both chambers was changed every 48–72 h.
OUTCOME_MEASURE: Papp B→A at 2 h

Query: Look up and report measured Papp B→A at 2 h for this entry: C[C@H](Cn1cnc2c(N)ncnc21)OCP(=O)(O)O [tenofovir, Tenofovir]
Reply: 1.46 to 1.64 ×10⁻⁶ cm/s

---

- TEST_METHOD_NOTES: Bi-directional permeability (Papp) across HEC-1A dual chamber (Transwell) barrier model
- Assay type: in vitro ADME
- CONDITION_CONTEXT: human, pH 7.4, Secretory Papp of mannitol, paracellular marker in the tenofovir permeability assay
- Experimental: The apical chambers of 12-well polycarbonate and polyester systems (Corning Costar Corp, Cambridge, UK) were seeded with different densities of HEC-1A cells in 500 µL of the medium while 1500 µL culture medium was added to the basolateral chamber. -Medium in both chambers was changed every 48–72 h.
OUTCOME_MEASURE: Papp B→A at 2 h

Query: Look up and report measured Papp B→A at 2 h for this entry: `OC[C@@H](O)[C@@H](O)[C@H](O)[C@H](O)CO`
Reply: 2.7 to 2.85 ×10⁻⁶ cm/s

---

- TEST_METHOD_NOTES: Bi-directional permeability (Papp) across HEC-1A dual chamber (Transwell) barrier model
- Type: in vitro ADME
- CONDITION_CONTEXT: human, pH 7.4; over concentration range tested; read-out: Efflux ratio (secretory/absorptive)
OUTCOME_MEASURE: efflux ratio at 2 h

Query: Look up and report measured efflux ratio at 2 h for this entry: `C[C@H](Cn1cnc2c(N)ncnc21)OCP(=O)(O)O`
Reply: 0.77 to 0.83

---

- TEST_METHOD_NOTES: Bi-directional permeability (Papp) across HEC-1A dual chamber (Transwell) barrier model
- Type: in vitro ADME
- CONDITION_CONTEXT: human, pH 7.4, mannitol measured simultaneously in drug permeability assays; read-out: Papp (barrier integrity control)
- Experimental: The apical chambers of 12-well polycarbonate and polyester systems (Corning Costar Corp, Cambridge, UK) were seeded with different densities of HEC-1A cells in 500 µL of the medium while 1500 µL culture medium was added to the basolateral chamber. -Medium in both chambers was changed every 48–72 h.
OUTCOME_MEASURE: Papp at 2 h

Query: Look up and report measured Papp at 2 h for this entry: OC[C@@H](O)[C@@H](O)[C@H](O)[C@H](O)CO [mannitol]
Reply: < 40 nm/s

---

- TEST_METHOD_NOTES: Bi-directional permeability (Papp) across HEC-1A dual chamber (Transwell) barrier model
- Format: in vitro ADME
- CONDITION_CONTEXT: human, pH 7.4; read-out: Secretory permeability Papp
OUTCOME_MEASURE: Papp B→A at 2 h

Query: Look up and report measured Papp B→A at 2 h for this entry: CC(C)CN(C[C@@H](O)[C@H](Cc1ccccc1)NC(=O)O[C@H]1CO[C@H]2OCC[C@H]21)S(=O)(=O)c1ccc(N)cc1 [darunavir, Darunavir]
Reply: 8.59 to 9.42 ×10⁻⁶ cm/s

---

- TEST_METHOD_NOTES: Cell-associated drug and distribution between apical and basolateral compartments after absorptive permeability assay;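 also: transwell transport run over 2 h at 37 °C, radiolabelled drug quantified by liquid scintillation counting, with insert membranes also counted for mass balance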
- Type: in vitro ADME, human
- CONDITION_CONTEXT: human, pH 7.4; 0.2% Poloxamer in receiver; read-out: Recovery from the apical compartment
OUTCOME_MEASURE: recovery at 2 h

Query: Look up and report measured recovery at 2 h for this entry: `Cc1cc(C)c(Nc2ccnc(Nc3ccc(C#N)cc3)n2)c(C)c1`
Reply: 19 to 21%

---

- TEST_METHOD_NOTES: Bi-directional permeability (Papp) across HEC-1A dual chamber (Transwell) barrier model
- Type: in vitro ADME
- CONDITION_CONTEXT: human, pH 7.4, apical to basolateral; over concentration range (tenofovir 0.1–100 µM; darunavir 0.1–20 µM, 0.01% DMSO); read-out: Absorptive permeability Papp
OUTCOME_MEASURE: Papp A→B at 2 h

Query: Look up and report measured Papp A→B at 2 h for this entry: C[C@H](Cn1cnc2c(N)ncnc21)OCP(=O)(O)O [tenofovir, Tenofovir]
Reply: 1.76 to 2.06 ×10⁻⁶ cm/s

---

- TEST_METHOD_NOTES: Bi-directional permeability (Papp) across HEC-1A dual chamber (Transwell) barrier model
- Type: in vitro ADME
- CONDITION_CONTEXT: human, pH 7.4, dapivirine 0.1–10 µM in 1% DMSO; no Poloxamer in receiver; read-out: Absorptive permeability Papp
- Description: The apical chambers of 12-well polycarbonate and polyester systems (Corning Costar Corp, Cambridge, UK) were seeded with different densities of HEC-1A cells in 500 µL of the medium while 1500 µL culture medium was added to the basolateral chamber. -Medium in both chambers was changed every 48–72 h.
OUTCOME_MEASURE: Papp A→B at 2 h

Query: Look up and report measured Papp A→B at 2 h for this entry: `Cc1cc(C)c(Nc2ccnc(Nc3ccc(C#N)cc3)n2)c(C)c1`
Reply: 2.5 to 2.61 ×10⁻⁶ cm/s

---

- TEST_METHOD_NOTES: Bi-directional permeability (Papp) across HEC-1A dual chamber (Transwell) barrier model
- Format: in vitro ADME
- CONDITION_CONTEXT: human, pH 7.4, Secretory Papp of mannitol, 1% DMSO in donor compartment (initial dapivirine assay)
- Method: The apical chambers of 12-well polycarbonate and polyester systems (Corning Costar Corp, Cambridge, UK) were seeded with different densities of HEC-1A cells in 500 µL of the medium while 1500 µL culture medium was added to the basolateral chamber. -Medium in both chambers was changed every 48–72 h.
OUTCOME_MEASURE: Papp B→A at 2 h

Query: Look up and report measured Papp B→A at 2 h for this entry: `OC[C@@H](O)[C@@H](O)[C@H](O)[C@H](O)CO`
Reply: 5.1 to 6.81 ×10⁻⁶ cm/s

These data points were gathered from paper PMC9504208.
